Values were extracted from the C3SDB collision cross section collection.

Settings: [M+Na]+; instrument: DT; stepped-field
test_readout: collision cross section (N2) (Å²)

CCCCC/C=C\C/C=C\CCCCCCCCCC(=O)O[C@H](COC(=O)CCCCCCCCCCC)COP(=O)([O-])OCC[N+](C)(C)C
286.9

(P) CCCCC/C=C\C\C=C/C=C/C=C/[C@@H](SC[C@H](N)C(=O)O)[C@@H](O)CCCC(=O)O
(Q) N[C@@H]1C(O)O[C@H](CO)[C@@H](O)[C@@H]1O (some centres not stated)
QUERY: Would you kindly point out which of P and Q has the smaller collision cross section (N2) figure? Reply briefly: the label of your chosen item.
RESULT: Q
(Q: 146.73 Å², P: 227.9 Å²)

(1) CCCCCCCCCCCCCCCCCCCCCCCC(=O)OC[C@@H](O)COP(=O)([O-])OCC[N+](C)(C)C
(2) CN(C)C(=O)Nc1ccc(Cl)c(Cl)c1
QUERY: Lower value for measured collision cross section (N2)? Options: 1 , 2 Your answer should be the label of the entry you select.
RESULT: 2
(2: 162.7 Å², 1: 262.43 Å²)

---

Settings: [M+Na]+; instrument: TW; calibrated with polyalanine and drug standards
test_readout: collision cross section (N2) (Å²)

COc1cc([C@@H]2c3cc4c(cc3[C@@H](O[C@@H]3O[C@@H]5CO[C@@H](c6cccs6)O[C@H]5[C@H](O)[C@H]3O)[C@H]3COC(=O)[C@H]23)OCO4)cc(OC)c1O [TENIPOSIDE]
266.1
CC(=O)N[C@H]1[C@H]([C@H](O)[C@H](O)CO)O[C@](O)(C(=O)O)C[C@@H]1O
166.6
COC(=O)CC[C@@H](C)[C@H]1CC[C@H]2[C@@H]3CC[C@@H]4C[C@H](O)CC[C@]4(C)[C@H]3C[C@H](O)[C@]12C [METHYL DEOXYCHOLATE]
199.1
CC(C)(C#N)O[C@@H]1O[C@H](CO)[C@@H](O)[C@H](O)[C@H]1O
157.3
C[C@H](CCC(=O)O)[C@H]1CC[C@H]2[C@@H]3C(=O)C[C@@H]4CC(=O)CC[C@]4(C)[C@H]3CC(=O)[C@]12C [DEHYDROCHOLIC ACID]
192.1

(I) OCc1ccccc1O[C@@H]1O[C@H](CO)[C@@H](O)[C@H](O)[C@H]1O
(II) CC(=O)O[C@H]1C[C@@]2(C)[C@@H](C[C@@H](O)[C@H]3[C@@]4(C)CC[C@@H](O)[C@@H](C)[C@@H]4CC[C@@]32C)/C1=C(\CCC=C(C)C)C(=O)O
QUERY: Compare the recorded collision cross section (N2) of I and II ; state which is larger. Mark your selection by writing its label.
RESULT: II
(II: 235.6 Å², I: 163.2 Å²)

---

Conditions: [M+Cl]-; instrument: DT; stepped-field
test_readout: collision cross section (N2) (Å²)

CCCCCC/C=C/CCCCCCCCCC(=O)O[C@H](COC(=O)CCCCCCCCCCCCCCC)COP(=O)([O-])OCC[N+](C)(C)C [PC(34:01)]
290.47
CCCCCCCCCCCCC=CC[C@@H](O)[C@H](CO[C@@H]1O[C@H](CO)[C@@H](O)C(O)C1O)NC(=O)CCCCCCCCCCCCCCCCCCCCC (stereo partly specified) [GlcCer(40:01)]
292.56
CCCCCCCCCCCCC=CC[C@@H](O)[C@H](CO[C@@H]1O[C@H](CO)[C@@H](O)C(O)C1O)NC(=O)CCCCCCCCCCCCCCCCC (stereo partly specified) [GlcCer(36:01)]
284.18
CC/C=C\C/C=C\C/C=C\C/C=C\C/C=C\CCCC(=O)O[C@H](COC(=O)CCCCCCC/C=C\CCCCCCCC)COP(=O)([O-])OCC[N+](C)(C)C [PC(38:06)]
296.13
CCCCC/C=C\C/C=C\CCCC/C=C\CCCC(=O)O[C@H](COC(=O)CCCCCCCCCCCCCCCCC)COP(=O)([O-])OCC[N+](C)(C)C [PC(38:03)]
299.51
CCCCCCCCCCCCC=CC[C@@H](O)[C@H](COP(=O)([O-])OCC[N+](C)(C)C)NC(=O)CCCCCCCCCCCCCCCCCCC [SM(38:01)]
294.7
